- protocolNotes: qHTS assay to identify small molecule agonists of the sonic hedgehog signaling (Shh) pathway - cell viability counter screen (AID 1259366); also: % is scaled to controls: 0 for no effect and ±100 for the full control effect; nearly all actives have a fitted effect of over 50% in size
- setupConditions: NIH/3T3 Gli1-Luc viability, CellTiter-Fluor, 24 h; series mostly up to 92.4 µM
Inconclusive results are not listed. The source made the active and inactive calls. Calls follow the shape of the dose curve; as a rule, active = well fitted cell-killing curve with a large enough effect in the repeat runs; inconclusive = weak or mixed curves, or effect the other way; inactive = flat fitted curve, though single readings scatter.

compound | viability change, negative = cytotoxic
Nc1ccc(S(=O)(=O)Nc2ccc(Cl)nn2)cc1 | inactive
CN1CCN(CC(=O)N2c3ccccc3C(=O)Nc3cccnc32)CC1 | 1.72% [at 8.39 µM] (inactive)
CNS(=O)(=O)CCc1ccc2[nH]cc(C3CCN(C)CC3)c2c1 | inactive
COCCOCCOCCOCCO | inactive
O=C(O)c1cc(Br)c(O)c(Br)c1 | inactive
CC(CN)CC(C)(C)CCN (configuration not stated) | inactive
NS(=O)(=O)c1ccc(NC(=O)CCC(=O)O)cc1 | inactive

---

- protocolNotes: qHTS assay to identify small molecule agonists of the retinoic acid receptor (RAR) signaling pathway (AID 1159553); as to activation: % is scaled to controls: 0 for no effect and ±100 for the full control effect
- setupConditions: C3RL4 RARE luciferase reporter, agonist, 6 h; series mostly up to 73.3 µM
Results filed as inconclusive are left out. Calls of active or inactive are those of the source. Calls come from the whole dose curve; as a rule, active = well fitted activation curve with a large enough effect in the repeat runs; inconclusive = weak or mixed curves, or effect the other way; inactive = no such curve, though single readings can be large or run the other way.
Outcomes: active, inactive

compound | labelValue
O=C(OCC(O)CO)c1ccccc1Nc1ccnc2c(C(F)(F)F)cccc12 (stereo unspecified) | inactive
Cc1cc(NC(=O)C2=C(O)c3ccccc3S(=O)(=O)N2C)no1 | inactive
CCOc1cc([N+](=O)[O-])c(OCC)cc1N1CCOCC1 | inactive
c1ccc2c(c1)ccc1c3ccccc3ccc21 | active
COc1cc(N)ccc1C | inactive
CC(C)=CCOC(=O)c1ccccc1 | inactive
Cc1ccccc1N=O | inactive
O=C1c2cccc3c2[C@H](CCC3)CN1[C@@H]1CN2CCC1CC2 | inactive
C[C@H](N)[C@H](O)c1cccc(O)c1 | inactive
N[C@@H](CCC(=O)N[C@@H](CS)C(=O)NCC(=O)O)C(=O)O | inactive
FC(F)(F)c1ccccc1-n1ccnc1 | inactive
O=Cc1ccc(Cl)c(Cl)c1 | inactive
CC(=O)Nc1cccc(C)c1 | inactive
CCCCCCOc1ccccc1C(N)=O | active
CCN(C)C(=O)Oc1cccc([C@H](C)N(C)C)c1 | inactive
CC(C)C(=O)OCCc1ccccc1 | inactive
CCCCCCCCCCl | inactive
Cc1ccc2ccc(Cl)cc2n1 | inactive
O=C1c2ccccc2C(=O)C1c1ccccc1 | inactive
Brc1ccc(-c2ccccc2)cc1 | inactive
CC1=C(C(=O)O)N2C(=O)[C@@H](NC(=O)[C@H](N)c3ccc(O)cc3)[C@H]2SC1 | inactive
O=C(OCC1(COC(=O)c2cccnc2)CCCC(COC(=O)c2cccnc2)(COC(=O)c2cccnc2)C1O)c1cccnc1 | inactive
COc1ccc(S(=O)(=O)N2c3ccc(Cl)cc3[C@@](O)(c3ccccc3Cl)[C@H]2C(=O)N2CCC[C@@H]2C(N)=O)cc1OC | inactive
CC(COC(C)(C)C)OCCCO (stereo unspecified) | inactive
BrCc1cccc(Oc2ccccc2)c1 | inactive
O=C(NCC(O)CO)c1c(I)c(C(=O)NCC(O)CO)c(I)c(N(CCO)C(=O)CO)c1I (stereo unspecified) | inactive

---

- protocolNotes: qHTS assay to identify small molecule agonists of the estrogen related receptor signaling pathway with the pleiotropic PPARgamma coactivator (PGC) from Tox21 10K library (AID 1224842); also: % is scaled to controls: 0 for no effect and ±100 for the full control effect; nearly all actives have a fitted effect of over 15% in size
- setupConditions: PGC/ERR reporter cell line, luciferase ONE-Glo, 18 h; series mostly up to 92.4 µM
Results filed as inconclusive are left out. The source made the active and inactive calls. Calls follow the shape of the dose curve; as a rule, active = well fitted activation curve with a large enough effect in the repeat runs; inconclusive = weak or mixed curves, or effect the other way; inactive = no such curve, though single readings can be large or run the other way.

molecule | activation
C=C1CC/C=C(\C)CC[C@@H]2[C@@H]1CC2(C)C | inactive
COC(=O)c1ccccc1C(=O)c1ccc(OCCN2CCCCC2)cc1 | inactive
CCCCCCCCSCC | inactive
CCCCCCCCC1CCC(=O)O1 (stereo not drawn) | inactive
CC(COC(C)(C)C)OCCCO (stereo not drawn) | inactive
CCCCC(CC)COCCO (stereo not drawn) | inactive
CC(=O)Nc1ccc(S(=O)(=O)Cl)cc1 | inactive
CCCCCCCC/C=C\CCCCCCCC(=O)OCCCC | -2.76% [at 19 µM] (inactive)
C[C@H](CCC(=O)O)[C@H]1CC[C@H]2[C@@H]3C(=O)C[C@@H]4CC(=O)CC[C@]4(C)[C@H]3CC(=O)[C@]12C | inactive
COc1nccnc1NS(=O)(=O)c1ccc(N)cc1 | inactive
COP(=O)(OC)OC(c1ccc(Cl)cc1)P(=O)(OC)OC (stereo not drawn) | inactive
CN(C)c1ccc(C=O)cc1 | inactive
CC(C)CC(=O)O | inactive
